Recorded IC50 values for a group of molecules are listed next.
Target: Recombinant G2019S-LRRK2 protein (Homo sapiens (Human), UniProt Q5S007, G2019S)
Sequence (Q5S007 whole entry G2019S): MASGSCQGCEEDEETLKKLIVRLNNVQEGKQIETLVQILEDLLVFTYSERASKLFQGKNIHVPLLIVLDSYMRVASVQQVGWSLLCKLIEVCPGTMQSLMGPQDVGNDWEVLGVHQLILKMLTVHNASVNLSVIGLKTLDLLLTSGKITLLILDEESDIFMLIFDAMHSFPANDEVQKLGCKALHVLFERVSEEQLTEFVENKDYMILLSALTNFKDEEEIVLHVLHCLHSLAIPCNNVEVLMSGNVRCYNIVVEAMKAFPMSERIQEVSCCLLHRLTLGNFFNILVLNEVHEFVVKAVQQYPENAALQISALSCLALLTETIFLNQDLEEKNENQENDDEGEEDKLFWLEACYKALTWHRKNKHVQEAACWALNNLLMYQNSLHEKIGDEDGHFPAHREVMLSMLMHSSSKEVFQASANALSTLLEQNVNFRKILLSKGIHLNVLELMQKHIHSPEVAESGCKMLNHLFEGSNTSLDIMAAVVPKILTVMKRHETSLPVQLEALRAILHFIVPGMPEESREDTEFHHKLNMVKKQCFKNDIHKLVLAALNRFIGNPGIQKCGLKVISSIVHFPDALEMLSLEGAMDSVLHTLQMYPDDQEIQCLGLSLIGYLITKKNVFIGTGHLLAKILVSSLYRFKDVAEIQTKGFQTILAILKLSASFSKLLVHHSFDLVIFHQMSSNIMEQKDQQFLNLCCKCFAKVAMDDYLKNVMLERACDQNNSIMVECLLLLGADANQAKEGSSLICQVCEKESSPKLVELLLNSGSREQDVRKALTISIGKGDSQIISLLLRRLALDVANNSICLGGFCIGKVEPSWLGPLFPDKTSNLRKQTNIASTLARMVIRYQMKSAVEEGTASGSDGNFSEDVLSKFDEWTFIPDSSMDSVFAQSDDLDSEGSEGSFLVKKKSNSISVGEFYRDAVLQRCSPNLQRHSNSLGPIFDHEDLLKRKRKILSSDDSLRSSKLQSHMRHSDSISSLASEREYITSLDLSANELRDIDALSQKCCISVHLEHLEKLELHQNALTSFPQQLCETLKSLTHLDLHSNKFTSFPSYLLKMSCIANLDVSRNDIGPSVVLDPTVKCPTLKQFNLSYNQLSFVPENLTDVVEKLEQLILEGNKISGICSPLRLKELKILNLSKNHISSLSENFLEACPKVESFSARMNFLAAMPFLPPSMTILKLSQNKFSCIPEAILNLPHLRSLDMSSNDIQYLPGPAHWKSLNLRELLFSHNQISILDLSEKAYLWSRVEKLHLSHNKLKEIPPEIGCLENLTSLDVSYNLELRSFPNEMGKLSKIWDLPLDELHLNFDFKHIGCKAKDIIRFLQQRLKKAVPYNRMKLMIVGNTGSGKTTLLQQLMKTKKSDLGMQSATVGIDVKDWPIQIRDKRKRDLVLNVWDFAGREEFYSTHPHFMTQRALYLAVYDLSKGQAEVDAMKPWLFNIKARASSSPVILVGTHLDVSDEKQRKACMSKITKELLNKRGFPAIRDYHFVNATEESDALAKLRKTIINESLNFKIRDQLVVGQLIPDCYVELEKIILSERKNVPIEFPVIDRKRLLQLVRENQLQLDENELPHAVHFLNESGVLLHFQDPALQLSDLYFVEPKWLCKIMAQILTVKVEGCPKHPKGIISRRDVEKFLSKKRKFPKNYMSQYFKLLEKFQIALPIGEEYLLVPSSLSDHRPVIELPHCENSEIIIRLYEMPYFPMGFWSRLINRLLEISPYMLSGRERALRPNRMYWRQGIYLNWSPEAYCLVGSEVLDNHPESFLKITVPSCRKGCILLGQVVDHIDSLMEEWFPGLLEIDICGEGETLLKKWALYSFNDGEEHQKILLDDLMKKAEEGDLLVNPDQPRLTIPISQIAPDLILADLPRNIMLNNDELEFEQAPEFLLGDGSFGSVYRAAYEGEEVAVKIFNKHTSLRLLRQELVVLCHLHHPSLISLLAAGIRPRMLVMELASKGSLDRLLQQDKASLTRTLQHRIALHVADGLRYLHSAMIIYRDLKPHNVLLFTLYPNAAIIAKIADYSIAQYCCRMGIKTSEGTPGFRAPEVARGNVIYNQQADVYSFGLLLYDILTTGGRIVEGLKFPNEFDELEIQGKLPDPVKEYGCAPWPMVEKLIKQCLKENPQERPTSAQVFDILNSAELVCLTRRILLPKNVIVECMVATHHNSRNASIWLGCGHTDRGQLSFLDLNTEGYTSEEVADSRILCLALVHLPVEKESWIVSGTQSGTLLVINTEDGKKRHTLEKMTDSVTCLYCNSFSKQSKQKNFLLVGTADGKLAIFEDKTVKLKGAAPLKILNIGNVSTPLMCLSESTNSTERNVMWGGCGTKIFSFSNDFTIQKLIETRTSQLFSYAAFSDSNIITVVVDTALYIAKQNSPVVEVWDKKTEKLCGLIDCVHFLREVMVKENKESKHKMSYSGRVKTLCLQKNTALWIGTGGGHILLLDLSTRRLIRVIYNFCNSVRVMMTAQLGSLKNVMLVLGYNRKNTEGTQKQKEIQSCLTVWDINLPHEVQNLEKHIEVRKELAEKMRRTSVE
Assay: LRRK2 kinase activity, LanthaScreen TR-FRET assay (G2019S)
Conditions: LRRKtide 400 nM, 25 μM ATP, 60 min
measurementLabel: IC50

samplesmiles=Cc1c(C#N)cnc(C(=O)Nc2ccc3[nH]nc(C=C4COC4)c3c2)c1C measurementlabel=IC50 valuereported="0.1 to 1 µM"
samplesmiles=Cc1cc(C(=O)Nc2ccc3[nH]nc(-c4ccoc4)c3c2)ncc1C#N measurementlabel=IC50 valuereported="< 0.1 µM"
samplesmiles=Cc1ccc(C#N)c(F)c1C(=O)Nc1ccc2[nH]nc(-c3cnco3)c2c1 measurementlabel=IC50 valuereported="< 0.1 µM"
samplesmiles=Cc1nc(C(=O)Nc2ccc3[nH]nc(C)c3c2)c(C)c(C)c1C#N measurementlabel=IC50 valuereported="< 0.1 µM"
samplesmiles=Cc1c(C#N)nn(C)c1C(=O)Nc1ccc2[nH]nc(-c3ccoc3)c2c1 measurementlabel=IC50 valuereported="< 0.1 µM"
samplesmiles=Cc1c(C#N)noc1C(=O)Nc1ccc2[nH]nc(-c3ccoc3)c2c1 measurementlabel=IC50 valuereported="0.1 to 1 µM"
samplesmiles=CCc1n[nH]c2ccc(NC(=O)c3nc(Cl)c(C#N)c(C)c3C)cc12 measurementlabel=IC50 valuereported="< 0.1 µM"
samplesmiles=Cc1nc(C(=O)Nc2ccc3[nH]nc(-c4cnoc4)c3c2)c(C)c(C)c1C#N measurementlabel=IC50 valuereported="< 0.1 µM"
samplesmiles=Cc1cc(C#N)cnc1C(=O)Nc1ccc2[nH]nc(-c3ccnc(C#N)c3)c2c1 measurementlabel=IC50 valuereported="< 0.1 µM"
